- experimentalTarget: HPV33 E6 phospho-PBM peptide p33E6 (human papillomavirus type 33)
- procedureSummary: FP
Response field label: string, one of 1 (Kd strictly below 4 µM) or -1.

Answered cases to consult:
>  <binder>
full-length human 14-3-3σ fused to the C terminus of MBP (natural protein) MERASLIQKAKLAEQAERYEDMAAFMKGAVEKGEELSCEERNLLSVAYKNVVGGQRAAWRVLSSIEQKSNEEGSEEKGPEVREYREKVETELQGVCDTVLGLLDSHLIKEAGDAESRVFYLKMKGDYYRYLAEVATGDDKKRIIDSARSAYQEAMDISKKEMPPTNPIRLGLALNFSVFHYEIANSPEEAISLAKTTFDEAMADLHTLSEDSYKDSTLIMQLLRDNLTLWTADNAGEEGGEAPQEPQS

>  <assignedCategory>
-1

$$$$
>  <binder>
full-length human 14-3-3ζ fused to the C terminus of MBP (natural protein) MDKNELVQKAKLAEQAERYDDMAACMKSVTEQGAELSNEERNLLSVAYKNVVGARRSSWRVVSSIEQKTEGAEKKQQMAREYREKIETELRDICNDVLSLLEKFLIPNASQAESKVFYLKMKGDYYRYLAEVAAGDDKKGIVDQSQQAYQEAFEISKKEMQPTHPIRLGLALNFSVFYYEILNSPEKACSLAKTAFDEAIAELDTLSEESYKDSTLIMQLLRDNLTLWTSDTQGDEAEAGEGGEN

>  <assignedCategory>
1

$$$$
>  <binder>
full-length human 14-3-3τ fused to the C terminus of MBP (natural protein) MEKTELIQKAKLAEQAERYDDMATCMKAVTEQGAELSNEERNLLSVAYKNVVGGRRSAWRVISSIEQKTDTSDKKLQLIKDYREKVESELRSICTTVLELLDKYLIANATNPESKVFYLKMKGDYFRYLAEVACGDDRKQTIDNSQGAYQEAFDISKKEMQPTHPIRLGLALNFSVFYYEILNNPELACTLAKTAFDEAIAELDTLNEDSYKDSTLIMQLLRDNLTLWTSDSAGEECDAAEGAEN

>  <assignedCategory>
1

$$$$

Kindly consider the entry below.
Record unfused 14-3-3ε devoid of the flexible C-terminal tail (domain or fragment) MDDREDLVYQAKLAEQAERYDEMVESMKKVAGMDVELTVEERNLLSVAYKNVIGARRASWRIISSIEQKEENKGGEDKLKMIREYRQMVETELKLICCDILDVLDKHLIPAANTGESKVFYYKMKGDYHRYLAEFATGNDRKEAAENSLVAYKAASDIAMTELPPTHPIRLGLALNFSVFYYEILNSPDRACRLAKAAFDDAIAELDTLSEESYKDSTLIMQLLRDNLTLWTS : is its Kd strictly below 4 µM? -1
